assay_remarks: Cytotoxicity against African green monkey Vero cells assessed as survival rate at 0.156 to 20 uM measured after 48 hrs by MTT assay relative to control
Format: toxicity, cell-based
condition_description: chlorocebus sabaeus, dose 0.156-20 µM, read-out: Survival
measurement_kind: viability at 48 h, up to 20 µM (%)
Unit % implied. Number only.

What measured viability at 48 h, up to 20 µM goes with COc1cc(/C=C/c2sc3ccccc3[n+]2C)ccc1N(C)N=O.[I-] ?
80
